protocol: Preliminary solubility assessment in solvents
Assay type: physicochemical
particulars: water, thermodynamic from solid, Water, 10 vol, RT; read-out: Solubility assessment 10 vol
experimentalReadout: solubility

Q. Data request, read-out solubility, for O=C(O)c1cccc(C#Cc2ccc(COC3CCOCC3)cc2)c1-c1ccc2cc[nH]c2c1 [Amorphous (I) free acid]
A. < 100 mg/mL

---

protocol: Preliminary solubility assessment in solvents
Format: physicochemical
particulars: tetrahydrofuran, organic solvent or mixture, thermodynamic from solid, Tetrahydrofuran, 10 vol, RT; read-out: Solubility assessment 10 vol
Method: Amorphous (I) free acid (post washing, ca. 20 mg) was dissolved or suspended in a range of solvent systems (using 10 or 20 volumes) at RT. Solutions were placed in a fridge at 4° C. overnight. If no solid was obtained, the solution was then allowed to evaporate at RT. Suspensions were matured between RT-50° C. heat-cool cycles (8 h per cycle) for up to 7 days. Solids were analyzed by XRPD.
experimentalReadout: solubility

Q. Data request, read-out solubility, for O=C(O)c1cccc(C#Cc2ccc(COC3CCOCC3)cc2)c1-c1ccc2cc[nH]c2c1 [Amorphous (I) free acid]
A. > 100 mg/mL

Numbers sourced from patent US12116359B2.
